These measurements were taken from patent US20240174625A1.

Tested on: HEK293T cells
Assay: Cell viability assay (CellTiter Glo)
Format: cell-based, human
Conditions: ratio of IC50 (cell viability) over EC50 (NPEPPS activity)
Label key: y means Therapeutic index under 4; n means Therapeutic index of 4 or more.

Reference set, count: 3
{"smi": "c1ccc(COc2ccc3snc(NCc4cccs4)c3c2)cc1", "qualitative label": "n"}
{"smi": "FC(F)(F)c1ccc2snc(NCc3ccc(OCc4ccccc4)cc3)c2c1", "qualitative label": "n"}
{"smi": "Fc1ccc(CNc2nsc3ccccc23)cc1", "qualitative label": "y"}

Is it true that Therapeutic index reported for FC(F)(F)Sc1ccc(CNc2nsc3ccc(OCc4ccccc4)cc23)cc1 is less than 4?
n

Is it true that Therapeutic index reported for CN(C)c1ccc(CNc2nsc3ccccc23)cc1 is less than 4?
y

Is it true that Therapeutic index reported for Fc1cc(Cl)ccc1CNc1nsc2ccccc12 is less than 4?
n

====

pEC50 by entry:
Molecular target: NPEPPS (Homo sapiens)
Construct: endogenous in cells
Experiment: Cell-based NPEPPS activity assay (Q-AMC fluorescence)
Settings: log10 transformed; EC50 = concentration that elevates 50% NPEPPS activity (150% of DMSO baseline); HEK293T cells
Units for pEC50: none; it is -log10 of a concentration expressed in mol/L.

Answered examples (3):
{"compound": "FC(F)(F)c1ccc(CNc2nsc3c(Br)cccc23)cc1 [JMM028]", "pEC50": 4.54}
{"compound": "c1ccc(COc2ccc3snc(NCc4ccc(Oc5ccccc5)cc4)c3c2)cc1 [JMM115]", "pEC50": 4.35}
{"compound": "C[C@H](Nc1nsc2ccccc12)c1cccc2ccccc12 [JMM101]", "pEC50": 4.15}

GET pEC50 where system = NPEPPS (Homo sapiens) and item = COc1ccc(CNc2nsc3cccc(OC)c23)cc1OC [JMM026]
4.38

GET pEC50 where system = NPEPPS (Homo sapiens) and item = CN(Cc1ccccc1C(F)(F)F)c1nsc2ccccc12 [JMM079]
5.45

GET pEC50 where system = NPEPPS (Homo sapiens) and item = c1ccc(COc2ccc3snc(NCc4cccs4)c3c2)cc1 [JMM119]
3.92

GET pEC50 where system = NPEPPS (Homo sapiens) and item = FC(F)(F)c1ccc(COc2ccc3snc(NCc4ccc(OCc5ccccc5)cc4)c3c2)cc1 [JMM131]
4.21

GET pEC50 where system = NPEPPS (Homo sapiens) and item = Clc1ccc(CNc2nsc3ccc(OCc4ccccc4)cc23)cc1Cl [JMM090]
4.65

GET pEC50 where system = NPEPPS (Homo sapiens) and item = COc1ccc(CNc2nsc3ccc(OCc4ccccc4)cc23)cc1 [JMM099]
4.33

GET pEC50 where system = NPEPPS (Homo sapiens) and item = COc1ccc(CNc2nsc3ccc(OC)cc23)cc1 [JMM097]
3.40

GET pEC50 where system = NPEPPS (Homo sapiens) and item = FC(F)(F)c1ccc(CNc2nccc3ccccc23)cc1 [JMM037]
3.95

GET pEC50 where system = NPEPPS (Homo sapiens) and item = FC(F)(F)c1ccc(CNc2nsc3ccc(Cl)cc23)cc1 [JMM138]
4.64

GET pEC50 where system = NPEPPS (Homo sapiens) and item = COc1ccc(C(=O)Nc2nsc3ccccc23)cc1OC [JMM002]
2.99

GET pEC50 where system = NPEPPS (Homo sapiens) and item = COc1ccc(Nc2nsc3ccccc23)cc1OC [JMM025]
3.43

GET pEC50 where system = NPEPPS (Homo sapiens) and item = COc1ccc(C(=O)Nc2nsc3ccccc23)cc1 [JMM004]
3.39

GET pEC50 where system = NPEPPS (Homo sapiens) and item = c1ccc2c(CNc3nsc4ccccc34)cccc2c1 [JMM013]
4.82

GET pEC50 where system = NPEPPS (Homo sapiens) and item = CN(Cc1ccc(Cl)c(Cl)c1)c1nsc2ccc(OCc3ccccc3)cc12 [JMM093]
5.30

GET pEC50 where system = NPEPPS (Homo sapiens) and item = Fc1ccccc1CNc1nsc2ccccc12 [JMM073]
3.86

GET pEC50 where system = NPEPPS (Homo sapiens) and item = c1ccc(CNc2ccc(CNc3nsc4ccc(OCc5ccccc5)cc34)cc2)cc1 [JMM122]
5.33

GET pEC50 where system = NPEPPS (Homo sapiens) and item = Fc1ccc(COc2ccc(CNc3nsc4ccc(OCc5ccccc5)cc34)cc2)c(F)c1 [JMM111]
4.99

GET pEC50 where system = NPEPPS (Homo sapiens) and item = FC(F)(F)c1cc(CNc2nsc3ccccc23)cc(C(F)(F)F)c1 [JMM008]
5.43

====

System: HEK293T cells
Test: Cell viability assay (CellTiter Glo)
Assay type: cell-based, human
Settings: ratio of IC50 (cell viability) over EC50 (NPEPPS activity)
reported metric: Therapeutic index

{"molecule": "c1ccc2c(CNc3nsc4ccccc34)cccc2c1 [JMM013]", "Therapeutic index": 27.36}
{"molecule": "FC(F)(F)c1ccc(CNc2nsc3ccccc23)c(C(F)(F)F)c1 [JMM061]", "Therapeutic index": 6.85}
{"molecule": "FC(F)(F)c1ccc(CNc2nsc3c(Br)cccc23)cc1 [JMM028]", "Therapeutic index": 1.19}

GET Therapeutic index where system = HEK293T cells and item = CN(Cc1ccccc1C(F)(F)F)c1nsc2ccccc12 [JMM079]
19.15

GET Therapeutic index where system = HEK293T cells and item = COc1ccc(CN(C)c2nsc3ccc(OC)cc23)cc1 [JMM100]
1.56

GET Therapeutic index where system = HEK293T cells and item = CN(Cc1ccc(OCc2ccc(Cl)cc2)cc1)c1nsc2ccc(OCc3ccccc3)cc12 [JMM108]
7.13

GET Therapeutic index where system = HEK293T cells and item = COc1ccc(C(Nc2nsc3ccccc23)c2ccc(OC)cc2)cc1 [JMM053]
335.12

GET Therapeutic index where system = HEK293T cells and item = FC(F)c1ccc(CNc2nsc3ccccc23)cc1 [JMM063]
1.33

GET Therapeutic index where system = HEK293T cells and item = c1ccc(COc2ccc3snc(NCc4ccc(OCc5cccs5)cc4)c3c2)cc1 [JMM132]
2.36

GET Therapeutic index where system = HEK293T cells and item = CN(Cc1ccc(C(F)(F)F)cc1)c1nsc2ccccc12 [JMM067]
15.54

GET Therapeutic index where system = HEK293T cells and item = Clc1ccc2snc(NCc3ccc(OCc4ccccc4)cc3)c2c1 [JMM129]
24.01

GET Therapeutic index where system = HEK293T cells and item = C#Cc1cccc2c(NCc3ccc(C(F)(F)F)cc3)nsc12 [JMM064]
2.30

====

Target: NPEPPS (Homo sapiens, UniProt P55786)
Construct: endogenous in cells
Sequence (P55786 whole entry): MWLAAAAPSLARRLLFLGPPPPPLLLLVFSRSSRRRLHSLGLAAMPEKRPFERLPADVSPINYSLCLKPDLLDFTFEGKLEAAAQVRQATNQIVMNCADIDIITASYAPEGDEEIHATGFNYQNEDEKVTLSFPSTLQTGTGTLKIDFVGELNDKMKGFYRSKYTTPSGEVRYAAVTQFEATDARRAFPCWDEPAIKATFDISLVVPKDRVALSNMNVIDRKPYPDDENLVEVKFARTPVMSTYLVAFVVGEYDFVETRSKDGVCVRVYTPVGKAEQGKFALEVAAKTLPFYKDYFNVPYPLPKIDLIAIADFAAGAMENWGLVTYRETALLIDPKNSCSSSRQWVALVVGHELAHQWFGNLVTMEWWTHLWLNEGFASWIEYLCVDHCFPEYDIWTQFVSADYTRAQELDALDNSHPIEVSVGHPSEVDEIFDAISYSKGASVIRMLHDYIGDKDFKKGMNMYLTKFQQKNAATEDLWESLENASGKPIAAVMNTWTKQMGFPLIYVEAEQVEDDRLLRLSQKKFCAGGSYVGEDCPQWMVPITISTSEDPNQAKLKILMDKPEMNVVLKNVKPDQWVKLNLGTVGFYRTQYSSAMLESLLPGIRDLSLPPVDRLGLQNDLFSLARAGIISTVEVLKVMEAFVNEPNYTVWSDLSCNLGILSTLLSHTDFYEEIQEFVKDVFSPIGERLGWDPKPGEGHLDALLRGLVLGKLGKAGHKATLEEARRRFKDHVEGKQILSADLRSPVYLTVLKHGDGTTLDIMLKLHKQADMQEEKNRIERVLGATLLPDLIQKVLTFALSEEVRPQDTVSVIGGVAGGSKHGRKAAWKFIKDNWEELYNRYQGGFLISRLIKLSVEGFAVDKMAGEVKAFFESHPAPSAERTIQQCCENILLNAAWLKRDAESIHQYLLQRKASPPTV
Experiment: Cell-based NPEPPS activity assay (Q-AMC fluorescence)
Conditions: log10 transformed; EC50 = concentration that elevates 50% NPEPPS activity (150% of DMSO baseline); HEK293T cells
pEC50: −log10 of the molar value.
# if value of pEC50 reaches 5, tag true; if it stays below, tag false

{"smi": "Fc1cccc2c(NCc3ccccc3C(F)(F)F)nsc12", "qualitative label": "false"}

Hello, I need to know if CN(Cc1ccc(OCc2ccc(Cl)c(Cl)c2)cc1)c1nsc2ccc(OCc3ccccc3)cc12 has measured pEC50 not below 5. Thanks!
true

Hello, I need to know if Brc1ccc(COc2ccc(CNc3nsc4ccc(OCc5ccccc5)cc34)cc2)cc1 has measured pEC50 not below 5. Thanks!
true

Hello, I need to know if c1ccc(C(Nc2nsc3ccccc23)c2ccccc2)cc1 has measured pEC50 not below 5. Thanks!
true

Hello, I need to know if CN(Cc1cccc2ccccc12)c1nsc2ccccc12 has measured pEC50 not below 5. Thanks!
false

Hello, I need to know if FC(F)(F)c1ccc(C(Nc2nsc3ccccc23)c2ccc(C(F)(F)F)cc2)cc1 has measured pEC50 not below 5. Thanks!
true

====

Target: NPEPPS (Homo sapiens)
Construct: endogenous in cells
Test: Cell-based NPEPPS activity assay (Q-AMC fluorescence)
Settings: log10 transformed; EC50 = concentration that elevates 50% NPEPPS activity (150% of DMSO baseline); HEK293T cells
Label key: satisfied means EC50 under 10 µM; not satisfied means EC50 of 10 µM or more.

Reference set, count: 2
{"smi": "CN(Cc1ccc(C(F)(F)F)cc1)c1nsc2ccc(OCc3ccccc3)cc12", "qualitative label": "satisfied"}
{"smi": "COc1ccc2snc(NCc3ccc(OCc4ccccc4)cc3)c2c1", "qualitative label": "not satisfied"}

Is it true that EC50 reported for c1ccc2c(NCc3ccc4c(c3)OCCO4)nsc2c1 is less than 10 µM?
not satisfied

Is it true that EC50 reported for c1ccc(COc2ccc3snc(NCc4ccc(OCC5CCCCC5)cc4)c3c2)cc1 is less than 10 µM?
not satisfied

Is it true that EC50 reported for FC(F)(F)c1ccc(CNc2nsc3ncccc23)cc1 is less than 10 µM?
not satisfied

====

Molecular target: NPEPPS (Homo sapiens)
Construct: endogenous in cells
Experiment: Cell-based NPEPPS activity assay (Q-AMC fluorescence)
Settings: log10 transformed; EC50 = concentration that elevates 50% NPEPPS activity (150% of DMSO baseline); HEK293T cells
EC50 by entry:
Enter your answer as a number in µM; do not include the unit.

Answered examples (2):
{"compound": "N#Cc1cccc2c(NCc3ccc(C(F)(F)F)cc3)nsc12 [JMM070]", "EC50, µM": 200}
{"compound": "c1ccc2c(NCc3ccncc3)nsc2c1 [JMM012]", "EC50, µM": 148}

Give EC50 for CC(Nc1nsc2ccccc12)c1cccc2ccccc12 (stereo not shown) [JMM080]
9.33

Give EC50 for COc1ccc2snc(N(C)Cc3ccc(OCc4ccccc4)cc3)c2c1 [JMM095]
7.76

Give EC50 for C[C@@H](Nc1nsc2ccccc12)c1cccc2ccccc12 [JMM102]
162

Give EC50 for FC(F)(F)c1ccc(CNc2n[nH]c3ccccc23)cc1 [JMM038]
100

Give EC50 for N#Cc1ccc(CNc2nsc3ccccc23)cc1 [JMM044]
63.1

Give EC50 for Clc1ccc2snc(NCc3ccc(OCc4ccccc4)cc3)c2c1 [JMM129]
27.5

Give EC50 for FC(F)(F)c1ccc(CN(Cc2ccccc2)c2nsc3ccccc23)cc1 [JMM072]
13.5

Give EC50 for c1ccc(COc2ccc(CNc3nsc4ccc(OCc5ccccc5)cc34)cc2)cc1 [JMM083]
0.708
